experimental.system: CCNE1 (Homo sapiens, UniProt P24864)
Construct: host or cells: HEK293-CCNE1-Hibit
Sequence (P24864 whole entry): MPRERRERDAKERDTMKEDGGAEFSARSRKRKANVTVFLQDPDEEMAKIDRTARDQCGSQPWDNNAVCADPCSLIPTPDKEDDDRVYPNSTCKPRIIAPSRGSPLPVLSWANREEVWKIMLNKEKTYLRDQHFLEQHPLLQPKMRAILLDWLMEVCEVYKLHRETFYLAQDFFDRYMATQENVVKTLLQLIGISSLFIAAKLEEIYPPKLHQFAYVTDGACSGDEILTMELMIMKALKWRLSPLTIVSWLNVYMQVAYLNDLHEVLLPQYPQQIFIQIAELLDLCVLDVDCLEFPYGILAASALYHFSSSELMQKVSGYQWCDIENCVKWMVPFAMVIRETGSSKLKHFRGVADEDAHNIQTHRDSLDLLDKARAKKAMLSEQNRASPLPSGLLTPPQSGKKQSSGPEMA
protocol: HiBit Assay Protocol for CCNE1 (HIBIT protein quantification, degradation)
Format: cell-based
condition.description: HEK293-CCNE1-Hibit cells, compound treatment for 6 hours
quantity.measured: CCNE1 HIBIT Protein Quantification Maximum (%)

(a) CC(C)C1CC(c2ccc3c(N4CCC(=O)NC4=O)nn(C)c3c2)CCN1C(C)c1cccc(S(=O)(=O)N2CC[C@H](Nc3ncc4c(n3)N([C@@H]3CCC[C@@H](O)C3)C(=O)C43CC3)[C@H](F)C2)c1 (some centres unmarked) [Compound 190]
(b) C[C@H](c1cccc(S(=O)(=O)N2CC[C@H](Nc3ncc4c(n3)N([C@@H]3CCC[C@@H](O)C3)C(=O)C43CC3)[C@H](F)C2)c1)N1CCC(c2ccc3c(N4CCC(=O)NC4=O)nn(C)c3c2)CC1 [Compound 198]
(c) CC1CCCC1N1C(=O)C2(CC2)c2cnc(NC3CCN(S(=O)(=O)N4CC5CN(C(=O)CCCCc6ccc7c(c6)n(C)c(=O)n7C6CCC(=O)NC6=O)CC5C4)CC3)nc21 (centres unmarked) [Compound 103]
(d) CC1CCCC1N1C(=O)C2(CC2)c2cnc(NC3CCN(S(=O)(=O)N4CC5(CCCN(C(=O)CCCc6ccc7c(c6)n(C)c(=O)n7C6CCC(=O)NC6=O)C5)C4)CC3)nc21 (centres unmarked) [Compound 66]
// sort listed items: CCNE1 HIBIT Protein Quantification Maximum descending Show the ranking through the labels, in the order asked for. b, a, d, c

(A) C[C@H](c1cccc(S(=O)(=O)N2CC[C@H](Nc3ncc4c(n3)N([C@@H]3CCC[C@@H](O)C3)C(=O)C43CC3)[C@H](F)C2)c1)N1CCN(c2ccc3c(N4CCC(=O)NC4=O)nn(C)c3c2)[C@H](C)C1 [Compound 208]
(B) CC1CCCC1N1C(=O)C2(CC2)c2cnc(NC3CCN(S(=O)(=O)N4CCCN(C(=O)CCCc5ccc6c(c5)n(C)c(=O)n6C5CCC(=O)NC5=O)CC4)CC3)nc21 (centres unmarked) [Compound 72]
(C) CC1CCCC1N1C(=O)C2(CC2)c2cnc(NC3CCN(S(=O)(=O)N4CCN(C(=O)CCCCCc5ccc6c(c5)n(C)c(=O)n6C5CCC(=O)NC5=O)CC4)CC3)nc21 (centres unmarked) [Compound 77]
Order by CCNE1 HIBIT Protein Quantification Maximum, ascending. List labels; respect the requested ordering. B, C, A

(1) Cc1c(CN2CCC(c3ccc4c(N5CCC(=O)NC5=O)nn(C)c4c3)CC2)cccc1S(=O)(=O)N1CCC(Nc2ncc3c(n2)N([C@@H]2CCC[C@@H](O)C2)C(=O)C32CC2)CC1 [Compound 159]
(2) CC1CCCC1N1C(=O)C2(CC2)c2cnc(NC3CCN(S(=O)(=O)N4CCC5(CCN(CCCCCCCOc6cccc7c6n(C)c(=O)n7C6CCC(=O)NC6=O)C5)C4)CC3)nc21 (centres unmarked) [Compound 141]
Pick the one with the larger CCNE1 HIBIT Protein Quantification Maximum: 1 vs 2 To answer, give the label that identifies your chosen option. 1

(a) Cn1nc(N2CCC(=O)NC2=O)c2ccc(C3CCN(Cc4cccc(S(=O)(=O)N5CCC(Nc6ncc7c(n6)N([C@H]6CCC[C@]6(C)O)C(=O)C76CC6)CC5)c4)CC3)cc21 [Compound 178]
(b) CC1CCCC1N1C(=O)C2(CC2)c2cnc(NC3CCN(S(=O)(=O)N4CC5CN(C(=O)CCCCc6cccc7c6n(C)c(=O)n7C6CCC(=O)NC6=O)CC5C4)CC3)nc21 (centres unmarked) [Compound 92]
(c) CC1CCCC1N1C(=O)C2(CC2)c2cnc(NC3CCN(S(=O)(=O)N4CC5CN(C(=O)CCc6ccc7c(c6)n(C)c(=O)n7C6CCC(=O)NC6=O)CC5C4)CC3)nc21 (centres unmarked) [Compound 55]
Reorder: CCNE1 HIBIT Protein Quantification Maximum, max to min. Please, when replying, give the labels in the order that was requested. a, c, b
(a: 38%, c: 13%, b: 7%)

(A) Cn1nc(N2CCC(=O)NC2=O)c2ccc(C3CCN(Cc4cccc(S(=O)(=O)N5CCC(Nc6ncc7c(n6)N([C@@H]6CCC[C@@H](O)C6)C(=O)C76CC6)CC5)c4)CC3)c(F)c21 [Compound 175]
(B) CC1CCCC1N1C(=O)C2(CC2)c2cnc(NC3CCN(S(=O)(=O)N4CCCC45CCN(C(=O)CCCc4ccc6c(c4)n(C)c(=O)n6C4CCC(=O)NC4=O)C5)CC3)nc21 (centres unmarked) [Compound 63]
# compare CCNE1 HIBIT Protein Quantification Maximum for A vs B ; return the one with the smaller value I would appreciate it if you answered with the label of your choice. B
(B: 2%, A: 44%)
